- system under test: recombinant human FLAP protein (Homo sapiens (Human), UniProt P20292)
- Sequence (P20292 whole entry): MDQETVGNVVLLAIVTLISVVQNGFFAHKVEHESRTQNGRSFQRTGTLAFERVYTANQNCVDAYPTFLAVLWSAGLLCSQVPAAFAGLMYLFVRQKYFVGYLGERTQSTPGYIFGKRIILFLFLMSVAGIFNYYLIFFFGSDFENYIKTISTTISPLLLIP
- method notes: FLAP binding assay (Scintillation Proximity Assay, displacement of [125I]L-691,831)
- condition label: read-out: FLAP SPA IC50
pIC50: −log10 of the molar value.
Would you please tag the item T when its pIC50 is 8 or above, and F when it is below?

Consider the worked cases shown below.
- N#Cc1ccc(-c2nc(C3(c4ccc(-c5cnc(N)nc5)nc4)CCC3)no2)cn1 [Example 83]: F
- Cn1ccc(-c2nc(C3(c4ccc(-c5cnc(N)nc5)nc4)CCC3)no2)n1 [Example 127]: F
- C[C@H](O)CNc1ccc(-c2nc(C3(c4ccc(-c5cnc(N)nc5)nc4)CCC3)no2)cn1 [Example 46]: T
- NC(=O)Cn1cc(-c2nc(C3(c4ccc(-c5cnc(N)nc5)nc4)CCC3)no2)cn1 [Example 70]: F
- CN(CCO)c1ccc(-c2nc(C3(c4ccc(-c5cnc(N)nc5)nc4)CCC3)no2)cn1 [Example 116]: T
- Nc1ncc(-c2ccc(C3(c4noc(-c5ccc(N6CC[C@@H](O)C6)nc5)n4)CCC3)cn2)cn1 [Example 43]: T

Record Nc1ncc(-c2ccc(C3(c4noc(-c5cnn6cccnc56)n4)CCC3)cn2)cn1 [Example 25] ; criterion: pIC50 no lower than 8. Met?
T

Record CC(C)(O)Cn1cc(-c2nc(C3(c4ccc(-c5cnc(N)nc5)nc4)CCC3)no2)cn1 [Example 54] ; criterion: pIC50 no lower than 8. Met?
F

Record CN(C)C(=O)Cn1cc(-c2nc(C3(c4ccc(-c5cnc(N)cn5)nc4)CCC3)no2)cn1 [Example 164] ; criterion: pIC50 no lower than 8. Met?
F

----------
- system under test: recombinant human FLAP protein (Homo sapiens (Human), UniProt P20292)
- method notes: FLAP binding assay (Scintillation Proximity Assay, displacement of [125I]L-691,831)
- condition label: read-out: FLAP SPA IC50
value type: IC50

- CN(C)C(=O)Cn1cc(-c2nc(C3(c4ccc(-c5ccc(N)nc5)nc4)CCC3)no2)cn1: 110 nM
- Nc1ncc(-c2ccc(C3(c4noc(-c5cnccn5)n4)CCC3)cn2)cn1: 47 nM

Could you share which IC50 value was measured for `Nc1ncc(-c2ccc(C3(c4noc(-c5cccnc5N5CCOCC5)n4)CCC3)cn2)cn1` ?
66 nM

Could you share which IC50 value was measured for `Nc1ncc(-c2ccc(C3(c4noc(-c5ccc(NC(CO)CO)nc5)n4)CCC3)cn2)cn1` ?
2.2 nM

Could you share which IC50 value was measured for `NC(=O)CNc1ccc(-c2nc(C3(c4ccc(-c5cnc(N)nc5)nc4)CCC3)no2)cn1` ?
5 nM

Could you share which IC50 value was measured for `CCNc1ccc(-c2nc(C3(c4ccc(-c5cnc(N)nc5)nc4)CCC3)no2)cn1` ?
2 nM

Could you share which IC50 value was measured for `Cn1cc(-c2nc(C3(c4ccc(-c5cnc(N)nc5)cn4)CCC3)no2)cn1` ?
81 nM

Could you share which IC50 value was measured for `Nc1ncc(-c2ccc(C3(c4noc(-c5cccnc5C(F)(F)F)n4)CCC3)cn2)cn1` ?
14 nM

----------
- System: synthesis of LTB4 in human whole blood
- method notes: Human whole blood LTB4 production inhibition assay
- Format: cell-based
- condition label: calcimycin stimulated, read-out: hWB LTB4 IC50
value type: IC50 (nM)
Return type: number; implicit unit nM.

Sample records with IC50:
* COCCn1cc(-c2nc(C3(c4ccc(-c5cnc(N)nc5)nc4)CCC3)no2)cn1 [Example 28] | 210
* Nc1ncc(-c2ccc(C3(c4noc(-c5ccc(N6CC[C@@H](O)C6)nc5)n4)CCC3)cn2)cn1 [Example 43] | 170
* Nc1ncc(-c2ccc(C3(c4noc(-c5cnn6cccnc56)n4)CCC3)cn2)cn1 [Example 25] | 46
* Nc1ncc(-c2ccc(C3(c4noc(-c5cc[nH]n5)n4)CCC3)cn2)cn1 [Example 4] | 430
* Cc1n[nH]cc1-c1nc(C2(c3ccc(-c4cnc(N)nc4)nc3)CCC2)no1 [Example 78] | 220
* Cc1ccc(-c2nc(C3(c4ccc(-c5cnc(N)nc5)nc4)CCC3)no2)cn1 [Example 74] | 210

Could you share which IC50 value was measured for COCCNc1cnc(-c2nc(C3(c4ccc(-c5cnc(N)nc5)nc4)CCC3)no2)cn1 [Example 56] ?
24

----------
Recorded log10 IC50 for the following molecules
- system under test: recombinant human FLAP protein (Homo sapiens (Human))
- method notes: FLAP binding assay (Scintillation Proximity Assay, displacement of [125I]L-691,831)
- condition label: read-out: FLAP SPA IC50
# log10 transformed; quantity=IC50; unit=nM

Sample records with log10 IC50:
* Cn1cnc(-c2nc(C3(c4ccc(-c5cnc(N)nc5)nc4)CCC3)no2)c1 | 1.72
* CNc1ccc(-c2nc(C3(c4ccc(-c5cnc(N)nc5)nc4)CCC3)no2)cn1 | 0.38
* CN(C)c1ncccc1-c1nc(C2(c3ccc(-c4cnc(N)nc4)nc3)CCC2)no1 | 1.53
* Nc1ncc(-c2ccc(C3(c4noc(-c5cncnc5)n4)CCC3)cn2)cn1 | 2.08
* Cc1ccc(-c2nc(C3(c4ccc(-c5cnc(N)nc5)nc4)CCC3)no2)c(O)n1 | 1.28
* Nc1cnc(-c2ccc(C3(c4noc(-c5cnn(C6COC6)c5)n4)CCC3)cn2)cn1 | 0.92
* Nc1ncc(-c2ccc(C3(c4noc(-c5ccc(NC6CC6)nc5)n4)CCC3)cn2)cn1 | 0.46

Proceed to the following item.
Could you share which log10 IC50 value was measured for `CN(C)CCn1cc(-c2nc(C3(c4ccc(-c5cnc(N)nc5)nc4)CCC3)no2)cn1` ?
1.20

----------
- System: synthesis of LTB4 in human whole blood
- method notes: Human whole blood LTB4 production inhibition assay
- Type: cell-based
- condition label: calcimycin stimulated, read-out: hWB LTB4 IC50
# label = bin(measured IC50), where bins are low range: < 0.1 µM; mid range: ≥ 0.1 µM and < 0.3 µM; high range: ≥ 0.3 µM

Sort into band: COCCN(C)c1ccc(-c2nc(C3(c4ccc(-c5cnc(N)nc5)nc4)CCC3)no2)cn1 [Example 117]
mid range

Sort into band: CS(=O)(=O)N1CCN(c2ccc(-c3nc(C4(c5ccc(-c6cnc(N)nc6)nc5)CCC4)no3)cn2)CC1 [Example 50]
mid range

Sort into band: NC(=O)Cn1cc(-c2nc(C3(c4ccc(-c5cnc(N)nc5)nc4)CCC3)no2)cn1 [Example 70]
high range

Sort into band: Nc1ncc(-c2ccc(C3(c4noc(-c5ccc(=O)[nH]c5)n4)CCC3)cn2)cn1 [Example 108]
high range

----------
Recorded IC50 for the following compounds
- Test system: synthesis of LTB4 in human whole blood
- method notes: Human whole blood LTB4 production inhibition assay
- Format: cell-based
- condition label: calcimycin stimulated, read-out: hWB LTB4 IC50
- Procedure: Compounds are additionally tested in a human whole blood assay to determine their ability to inhibit the synthesis of LTB4 in a cellular system. Compounds are combined with heparinized human whole blood and incubated for 15 minutes at 37° C. […] Plasma LTB4 concentrations are then measured using an antibody-based homogenous time-resolved fluorescence method (CisBio, Bedford, Mass.).
Return type: number; implicit unit nM.

Could you share which IC50 value was measured for `CC(C)(O)CNc1ccc(-c2nc(C3(c4ccc(-c5cnc(N)nc5)nc4)CCC3)no2)cn1` ?
140

Could you share which IC50 value was measured for `COc1ccc(-c2nc(C3(c4ccc(-c5cnc(N)nc5)nc4)CCC3)no2)c(OC)n1` ?
1100

Could you share which IC50 value was measured for `N#Cc1ccc(-c2nc(C3(c4ccc(-c5cnc(N)nc5)nc4)CCC3)no2)cn1` ?
410

Could you share which IC50 value was measured for `Nc1ncc(-c2ccc(C3(c4noc(-c5cnccc5Cl)n4)CCC3)cn2)cn1` ?
490

----------
- system under test: recombinant human FLAP protein (Homo sapiens (Human))
- method notes: FLAP binding assay (Scintillation Proximity Assay, displacement of [125I]L-691,831)
- condition label: read-out: FLAP SPA IC50
- Protocol: Assessment of Biological Properties 1. Binding Assay: Compounds are assessed for the ability to bind to FLAP in a binding assay that measures compound-specific displacement of an iodinated (^125I) FLAP inhibitor via a Scintillation Proximity Assay format (adapted from S. Charleson et al., Mol. Pharmacol., 1992, 41, 873-879). […] (final concentrations: beads, 200 μg/well; protein, 5 μg/well; […] The plates are shaken for 2 h before reading on a Microbeta plate reader.
Recorded log10(IC50) for the following molecules
# log10 transformed; quantity=IC50; unit=nM

Sample records with log10(IC50):
• CC(C)(C#N)n1cc(-c2nc(C3(c4ccc(-c5cnc(N)nc5)nc4)CCC3)no2)cn1 = 1.26
• CC(C)(CO)Nc1ccc(-c2nc(C3(c4ccc(-c5cnc(N)nc5)nc4)CCC3)no2)cn1 = 0.41
• COC(=O)[C@H]1CNCCN1c1ccc(-c2nc(C3(c4ccc(-c5cnc(N)nc5)nc4)CCC3)no2)cn1 = 0.51
• Nc1ncc(-c2ccc(C3(c4noc(-c5cnn(CC(=O)NCC6CCCO6)c5)n4)CCC3)cn2)cn1 (stereo not drawn) = 1.99
• Nc1ncc(-c2ccc(C3(c4noc(-c5cccnc5Cl)n4)CCC3)cn2)cn1 = 0.61
• Nc1ncc(-c2ccc(C3(c4noc(-c5cnccc5Cl)n4)CCC3)cn2)cn1 = 0.86
• CS(=O)(=O)c1ccc(-c2nc(C3(c4ccc(-c5cnc(N)nc5)nc4)CCC3)no2)cn1 = 1.79
• Nc1ncc(-c2ccc(C3(c4noc(-c5ccc6nccn6c5)n4)CCC3)cn2)cn1 = 1.09

Notebook: pull reported log10(IC50) for recombinant human FLAP protein (Homo sapiens (Human)), entry `CC(C)(O)c1ccc(-c2nc(C3(c4ccc(-c5cnc(N)nc5)nc4)CCC3)no2)cn1`
1.23

Notebook: pull reported log10(IC50) for recombinant human FLAP protein (Homo sapiens (Human)), entry `Cn1cnnc1-c1nc(C2(c3ccc(-c4cnc(N)nc4)nc3)CCC2)no1`
2.04

Notebook: pull reported log10(IC50) for recombinant human FLAP protein (Homo sapiens (Human)), entry `Nc1ncc(-c2ccc(C3(c4noc(-c5ccncn5)n4)CCC3)cn2)cn1`
2.11
